- method: Mycobacterium tuberculosis growth inhibition, primary screen (AID 1259343)
- assay_setup: at 10 µM, stronger effect = higher value
Screen size: about 6,200 compounds; about 2,900 (47%) were called active. So high a share suggests a set chosen from earlier hits. Some of the results follow.
readout_label: inhibition (%)
Answers are plain numbers, in %.

Example cases with answers are listed next.
{"columns": ["compound", "measurement_unit", "inhibition"],
 "data": [
  ["Cc1ccc(F)cc1NS(=O)(=O)c1cc(Cl)sc1Cl", "%", 94.1],
  ["CN(C1CCCCC1)S(=O)(=O)c1ccc(Br)cc1Cl", "%", -4.67],
  ["O=C(NCC12CC3CC(CC(C3)C1)C2)c1ccccc1", "%", 25.9],
  ["CCc1sc(-c2nnc(-c3cccc(OC)c3)o2)cc1C", "%", 52.4],
  ["COc1cccc(-c2ccccc2NC(=O)C2CCN(Cc3cccc(C)n3)CC2)c1", "%", 99.6],
  ["Cc1cc(N2CC[C@@H](c3ccc4c(c3)OCO4)[C@H](O)C2)nc2cc(F)ccc12", "%", 11.3],
  ["CCc1cnc(N2CC[C@@H](c3ccc4ccccc4c3)[C@H](O)C2)nc1", "%", 86.1],
  ["O=S(=O)(Nc1ccc(Cl)cc1F)c1ccc(Br)cc1Cl", "%", 71]
]}

# map each compound to its inhibition
1. CSc1c(C#N)c(=O)[nH]c2sc(C#N)c(N)c12
2. Cc1ccc(C(=O)NC(C)C23CC4CC(CC(C4)C2)C3)s1 (stereo not given)
3. COc1cccc(C(=O)NC(C)C23CC4CC(CC(C4)C2)C3)c1 (stereo not given)
4. O=S(=O)(/C=C/c1ccccc1)NC12CC3CC(CC(C3)C1)C2
5. O=C1c2cccc3cccc(c23)N1S(=O)(=O)c1ccc(Cl)cc1

Ans:
1: 29.1; 2: 93.3; 3: 62.8; 4: -12.7; 5: -5.06

// for each compound below, give its inhibition
1. O=S(=O)(Nc1c(F)cccc1Br)c1cc(Cl)cc(Cl)c1
2. CCc1sc(-c2nnc(CSc3nnc(-c4ccco4)o3)o2)cc1C
3. COc1ccc(/C=N\Nc2nc(-c3ccc4c(c3)OCCO4)cs2)cc1OC
4. Cc1c(C(=O)NCc2ccco2)c(C2CC2)nn1-c1ccc(Cl)c(Cl)c1
5. COc1cccc(-c2ccccc2NC(=O)C2CCN(Cc3ccc(OC)c(C)c3)CC2)c1

Ans:
87.1
-15.2
85.6
91
92

For each of the compounds below, state inhibition.
1. COc1cccc(C2=NN(C(C)=O)C(C(=O)N(CC(C)C)CC(C)C)O2)c1 (stereo not given)
2. CCOc1ccc(/C=N\Nc2nc(-c3ccc(OC)c(OC)c3)cs2)cc1

Ans:
1. -4.2
2. 79.8

----------
- method: Mycobacterium tuberculosis growth inhibition, primary screen (AID 1259343)
- assay_setup: at 10 µM
The campaign covered roughly 6,200 compounds. About 2,900 (47%) were called active. Rule as the data show it: active = inhibition above about 50%; inactive = the rest. The set was probably picked from earlier hits. Some of the results follow.
Your answer must be one of the following: Y for active, N for inactive

Worked cases, answers included:
{"columns": ["compound", "class_label"],
 "data": [
  ["CNc1snc(C)c1C(=O)NCc1ccc2c(c1)CCC2", "N"],
  ["Cc1ccc(Cc2nc(N3CCNCC3)c3c(C)nn(-c4ccccc4)c3n2)cc1", "Y"],
  ["CNc1snc(C)c1C(=O)OCc1ccc(-n2cccn2)cc1", "Y"]
]}

Q: Could you check what this test reported for `C=CCn1cnc2c(c1=O)c1nc3ccccc3nc1n2CCC(C)C` ?
Ans: N

Q: Which outcome was entered for the compound `Cc1cccc(Nc2ccc(NCCNS(=O)(=O)c3ccc(F)cc3)nn2)n1` in this test?
Ans: N

----------
- method: Mycobacterium tuberculosis growth inhibition, primary screen (AID 1259343)
- assay_setup: at 10 µM, stronger effect = higher value
Hit rate of the full screen: of about 6,200 compounds, about 2,900 (47%) were called active. The set was probably picked from earlier hits. The list shows a part of the results.
Recorded inhibition determines the group label, using group 1 (below 40%), group 2 (40% to below 70%), group 3 (70% or more)

{"columns": ["molecule", "class_label"],
 "data": [
  ["CCCOc1ccc(Cn2c(=O)oc3ccc(C)cc32)cc1", "group 2"]
]}

Would you kindly look at the next entry?
Q: Any idea which band `CC(=NNC(=O)c1cc(C)oc1C)c1ccc2c(c1)Nc1ccccc1S2` is in?
Ans: group 2

----------
- method: Mycobacterium tuberculosis growth inhibition, primary screen (AID 1259343)
- assay_setup: at 10 µM, stronger effect = higher value
The whole screen tested about 6,200 compounds, of which about 2,900 (47%) were called active. So high a share suggests a set chosen from earlier hits. The list shows a part of the results.
Returns Yes if the recorded inhibition is greater than or equal to 70%, and No otherwise.

Q: Given the entry c1ccc(COC2CCCN(Cc3nc(CC4CC4)no3)C2)cc1 (stereo unspecified) , answer whether its inhibition meets or surpasses 70%.
Ans: No

Q: Form field: inhibition at least 70%? Entry: `Cc1c(C(=O)NCc2ccccc2C(F)(F)F)sc(=O)n1Cc1ccccc1F`
Ans: No

Q: Has `Cn1c(=O)cc2c3c(cccc31)C(=O)c1ccccc1-2` a recorded inhibition greater than or equal to 70%?
Ans: No

Q: hey, is inhibition for this one >= 70%? `COc1ccccc1Cn1c(C)c(C(=O)NCc2ccccc2C(F)(F)F)sc1=O`
Ans: No

Q: Answer whether inhibition of `Cc1ccc(-c2cc(C(F)(F)C(F)F)[nH]n2)cc1` is greater than or equal to 70%.
Ans: Yes

Q: Quick check: does `COCCNCc1c(-c2ccccc2)noc1N(C)C1CCCCC1` have inhibition greater than or equal to 70%?
Ans: Yes

Q: Given the entry `O=C(CN1CCN(S(=O)(=O)N2CCCCCC2)CC1)Nc1ccc2ccccc2c1` , answer whether its inhibition meets or surpasses 70%.
Ans: No

Q: Reported inhibition at or above 70%? `O=C1NC(=S)SC1=Cc1ccccc1OCc1ccccc1`
Ans: Yes

Q: # check: inhibition of `CCn1cnnc1CCNS(=O)(=O)NCc1ccccc1` is greater than or equal to 70%
Ans: No

----------
- method: Mycobacterium tuberculosis growth inhibition, primary screen (AID 1259343)
- assay_setup: at 10 µM, stronger effect = higher value
About 2,900 (47%) of roughly 6,200 compounds were called active. The set was probably picked from earlier hits. The list shows a part of the results.
readout_label: inhibition (%)
Answers are plain numbers, in %.

{"columns": ["molecule", "readout_label", "observed_measurement"],
 "data": [
  ["O=c1cc(-c2ccccc2)nc2sc(Br)nn12", "inhibition", 102],
  ["CC(NC(=O)c1ccc([N+](=O)[O-])o1)C12CC3CC(CC(C3)C1)C2 (centres undefined)", "inhibition", 106],
  ["Cc1ccc(-c2cnn3c(-n4nc(C)cc4C)cc(C)nc23)cc1", "inhibition", 47.1],
  ["Cc1cc(NCCOCCO)n2ncc(-c3ccc(Cl)cc3)c2n1", "inhibition", -5.37],
  ["CC(NC(=O)c1ccc(Br)o1)C12CC3CC(CC(C3)C1)C2 (centres undefined)", "inhibition", 0.12],
  ["Nc1c(C=C2C=C([N+](=O)[O-])C=C(Br)C2=O)c(=O)nc2sc(-c3ccccc3)nn12", "inhibition", 45.7],
  ["CC(NC(=O)COc1ccccc1F)C1CC2CCC1C2 (centres undefined)", "inhibition", 95.6],
  ["c1ccc(-c2cc(NCCCn3ccnc3)n3ncc(-c4ccccc4)c3n2)cc1", "inhibition", -16.1],
  ["CCc1nn2c(NCCOC)cc(C)nc2c1-c1ccccc1", "inhibition", 32.2],
  ["C(=Nn1c(-c2cccs2)csc1=Nc1ccccc1)c1ccccn1", "inhibition", -1.25]
]}

// for each molecule in input: emit inhibition
1. CCOc1ccc(-c2n[nH]c(=S)o2)cc1
2. Cc1cc(NCCCn2ccnc2)n2ncc(-c3ccc(Cl)cc3)c2n1
3. CC(Cc1n[nH]c(=S)o1)c1ccccc1 (centres undefined)
4. COc1ccc(CCCc2n[nH]c(=S)o2)cc1
5. COc1ccc(CC(=O)Nc2cc(C)nn2-c2nc(C)c(C)c(=O)[nH]2)cc1OC
6. CC(NC(=O)c1ccc(Br)o1)C1CC2CCC1C2 (centres undefined)
7. CC(NC(=O)C=Cc1cccs1)C1CC2CCC1C2 (centres undefined)

Ans:
1: 48.7; 2: 95.2; 3: 36.9; 4: 99.7; 5: 100; 6: 37.7; 7: 36.7

The following molecules each have a reported value; give each one's inhibition.
1. CCNC(=O)c1ccc([N+](=O)[O-])o1
2. COc1ccc(Oc2ccc(C(=O)N[C@H]3CCCC[C@@H]3O)cc2)cc1

Ans:
1. 15.7
2. 80.8
